Entries annotated with measured % Positive Control (REVEAL binding score)
SYSTEM NAME: T1, HLA-B*2705 (human, UniProt P01889 25-302 at identity 0.93))
T1 construct: MHC class I molecule assembled with candidate peptides in the REVEAL assay (ProImmune)
T1 MHC heavy: not shown
TEST SUMMARY: REVEAL MHC-peptide binding assay, incorporation into HLA-B*2705

BINDER	OBS VALUE
ARGQPGVMG [Peptide I.D. 37 ARGQPGVMG]	0 % of positive control

Return reported % Positive Control (REVEAL binding score); argument: HTRRQLEDI [Peptide I.D. 8 HTRRQLEDI] 0.04 % of positive control

Reported % Positive Control (REVEAL binding score) for IDLQDFFSS [Peptide I.D. 32 IDLQDFFSS] : what is it? 0.13 % of positive control

Using the record for RSIDLQDFF [Peptide I.D. 30 RSIDLQDFF] , report its % Positive Control (REVEAL binding score). 0.08 % of positive control

Any idea what % Positive Control (REVEAL binding score) was measured for HKHTRRQLE [Peptide I.D. 6 HKHTRRQLE] ? 0 % of positive control

Dear colleague, I am looking for the recorded % Positive Control (REVEAL binding score) of the following binder: EYFKRFNAL [Peptide I.D. 15 EYFKRFNAL] 0.48 % of positive control

% Positive Control (REVEAL binding score) lookup needed for YFKRFNALQ [Peptide I.D. 16 YFKRFNALQ] , thanks. 0.47 % of positive control

What measured % Positive Control (REVEAL binding score) goes with TRRQLEDIR [Peptide I.D. 9 TRRQLEDIR] ? 0.02 % of positive control

The reported measurements were obtained from patent US20160280750A1.
